Target: mouse OAZ1 (mOAZ1) (Mus musculus)
Construct: Full-length mOAZ1 protein was successfully produced in E. coli; made in house; host or cells: Escherichia coli Rosetta (DE3)
Assay: Isothermal titration calorimetry of polyamines binding to mOAZ1
Conditions: calculated as 1/Ka; no binding = not detected, Kd > 50 μM not detectable; read-out: Kd (dissociation constant)
Would you kindly list pKd for each of these molecules?
Note on pKd: it is the negative log10 of concentration, concentration in mol/L.

Entry CCNCCCNCCCNCCCNCC [DENSpm, N^1,N^11-diethylnorspermine] , system mouse OAZ1 (mOAZ1) (Mus musculus): what pKd was measured?
5.89

Then NCCCNCCCCNCCCN [Spm, spermine] ?
5.96

What do we get for CC(N)CCNCCCCN (centres unmarked) [1-MeSpd] ?
5.72

Subsequent entry: CC(CCN)NCCCCN (centres unmarked) [3-MeSpd]
5.60

Next entry: NCCCCNCCCN [Spd, spermidine]
5.44

----------
Target: mouse OAZ1 (mOAZ1) (Mus musculus, UniProt P54369)
Construct: Full-length mOAZ1 protein was successfully produced in E. coli; made in house; host or cells: Escherichia coli Rosetta (DE3)
Sequence (P54369 whole entry): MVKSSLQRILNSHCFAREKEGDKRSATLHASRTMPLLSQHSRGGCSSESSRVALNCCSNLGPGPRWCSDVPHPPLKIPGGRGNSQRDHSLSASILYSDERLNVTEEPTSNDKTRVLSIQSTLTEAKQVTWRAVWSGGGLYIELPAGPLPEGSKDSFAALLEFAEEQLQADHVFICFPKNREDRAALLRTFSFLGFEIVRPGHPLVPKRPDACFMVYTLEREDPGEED
Experiment: Isothermal titration calorimetry of polyamines binding to mOAZ1
Settings: ITC, 31 °C, pH 7.5; SD did not exceed ±25%
reported.metric: Ka (affinity constant)

// worked examples, Ka (affinity constant) included
NCCCCNCCCN; 280000 M⁻¹
CC(CN)CNCCCCN (stereo not shown); No binding ^f
NCCCNCCCCNCCCN; 920000 M⁻¹
CCNCCCNCCCNCCCNCC; 750000 M⁻¹

Query (compound): CC(CCN)NCCCCN (stereo not shown) ; field requested: Ka (affinity constant)
400000 M⁻¹

# iterate: CC(N)CCNCCCCN (stereo not shown)
540000 M⁻¹

Please do the same for `NCCCCN` as well.
No binding ^f

----------
Target: mouse OAZ1 (mOAZ1) (Mus musculus)
Construct: Full-length mOAZ1 protein was successfully produced in E. coli; made in house; host or cells: Escherichia coli Rosetta (DE3)
Test: Isothermal titration calorimetry of polyamines binding to mOAZ1
Settings: calculated from TΔS = ΔH + RTlnKa
Consider the following compounds; for each one, report its TΔS (entropy variation).
Report as a plain number; the unit kcal/mol is understood.

Consider the compound shown here: NCCCCNCCCN [Spd, spermidine] What is its recorded TΔS (entropy variation)?
4.2

CC(CCN)NCCCCN (stereo not shown) [3-MeSpd] , same question.
6.6

Lookup CC(N)CCNCCCCN (stereo not shown) [1-MeSpd]
5.8

# iterate: NCCCNCCCCNCCCN [Spm, spermine]
4.5

Same question, CCNCCCNCCCNCCCNCC [DENSpm, N^1,N^11-diethylnorspermine] this time
3.0

----------
Target: mouse OAZ1 (mOAZ1) (Mus musculus)
Construct: Full-length mOAZ1 protein was successfully produced in E. coli; made in house; host or cells: Escherichia coli Rosetta (DE3)
Test: Isothermal titration calorimetry of polyamines binding to mOAZ1
Conditions: ITC; read-out: Kd of complex with mOAZ1
Exercise: for every item that follows, state its recorded Kd.

Can you share its Kd? I mean this compound: CC(N)CCNCCCCN (stereo not drawn)
~1 µM

What do you have for `NCCCCNCCCN` ?
~1 µM

Would you kindly repeat that for CC(CCN)NCCCCN (stereo not drawn) ?
~1 µM
